targetOrSystem: Adenosine receptor A1 (Cavia porcellus)
testDetails: Binding affinity against adenosine A1 receptor using [3H]CPX in guinea pig DDT membrane; 604+/-241
observedProperty: Ki (nM)
Give bare numbers, in nM.

Form field: reported Ki of O[C@@H]1[C@@H](COc2cccc(F)c2)OC(n2cnc3c(NC4CCOC4)ncnc32)[C@@H]1O (stereo partly specified) 604

* * *

targetOrSystem: Adenosine receptor A1 (Cavia porcellus, UniProt P47745)
Sequence (P47745 whole entry): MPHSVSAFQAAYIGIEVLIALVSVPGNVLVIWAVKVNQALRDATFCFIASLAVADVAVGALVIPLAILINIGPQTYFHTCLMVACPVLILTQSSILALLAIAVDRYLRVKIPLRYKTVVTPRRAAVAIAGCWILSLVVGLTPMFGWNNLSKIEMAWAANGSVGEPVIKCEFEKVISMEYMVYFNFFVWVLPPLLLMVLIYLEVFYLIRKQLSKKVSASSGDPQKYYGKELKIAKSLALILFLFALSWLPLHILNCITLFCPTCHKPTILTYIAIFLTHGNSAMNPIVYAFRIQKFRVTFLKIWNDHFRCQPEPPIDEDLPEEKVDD
testDetails: Binding affinity against adenosine A1 receptor using [3H]CPX in guinea pig DDT membrane; 1571+/-245
observedProperty: pKi
Answers are plain numbers, as −log10 of the molar value.

Which measured pKi belongs to O[C@@H]1[C@@H](CSc2cccc(F)c2)OC(n2cnc3c(NC4CCOC4)ncnc32)[C@@H]1O (stereo partly specified) , tested on Adenosine receptor A1 (Cavia porcellus, UniProt P47745)? 5.80

* * *

targetOrSystem: Adenosine receptor A1 (Cavia porcellus, UniProt P47745)
testDetails: Binding affinity against adenosine A1 receptor using [3H]CPX in guinea pig DDT membrane; 5497+/-180
observedProperty: pKi
One number for each entry, as −log10 of the molar value.

Form field: reported pKi of O[C@@H]1[C@H](O)[C@@H](CSc2ccc(F)cc2F)O[C@H]1n1cnc2c(NC3CCOC3)ncnc21 (stereo partly specified) 5.26

* * *

targetOrSystem: Adenosine receptor A1 (Cavia porcellus, UniProt P47745)
testDetails: Binding affinity against adenosine A1 receptor using [3H]CPX in guinea pig DDT membrane; 287+/-125
observedProperty: Ki (nM)
Numbers only, in nM.

Which measured Ki belongs to O[C@@H]1[C@@H](CSc2ccccc2F)OC(n2cnc3c(NC4CCCC4)ncnc32)[C@@H]1O (stereo partly specified) , tested on Adenosine receptor A1 (Cavia porcellus, UniProt P47745)? 287

* * *

targetOrSystem: Adenosine receptor A1 (Cavia porcellus, UniProt P47745)
testDetails: Binding affinity against adenosine A1 receptor using [3H]CPX in guinea pig DDT membrane; 400+/-38
observedProperty: Ki (nM)
Answers are plain numbers, in nM.

Which measured Ki belongs to O[C@@H]1[C@@H](CSc2nc3ccccc3s2)OC(n2cnc3c(NC4CCOC4)ncnc32)[C@@H]1O (stereo partly specified) , tested on Adenosine receptor A1 (Cavia porcellus, UniProt P47745)? 400

* * *

targetOrSystem: Adenosine receptor A1 (Cavia porcellus)
testDetails: Binding affinity against adenosine A1 receptor using [3H]CPX in guinea pig DDT membrane; 1773+/-209
observedProperty: Ki (nM)
One number for each entry, in nM.

Form field: reported Ki of O[C@@H]1[C@@H](CSc2nc3ccccc3s2)OC(n2cnc3c(NC4CCCC4)ncnc32)[C@@H]1O (stereo partly specified) 1770

* * *

targetOrSystem: Adenosine receptor A1 (Cavia porcellus)
testDetails: Binding affinity against adenosine A1 receptor using [3H]CPX in guinea pig DDT membrane; 503+/-262
observedProperty: Ki (nM)
One number for each entry, in nM.

Form field: reported Ki of Cc1ccccc1OC[C@H]1OC(n2cnc3c(NC4CCOC4)ncnc32)[C@H](O)[C@@H]1O (stereo partly specified) 503

* * *

targetOrSystem: Adenosine receptor A1 (Cavia porcellus, UniProt P47745)
Sequence (P47745 whole entry): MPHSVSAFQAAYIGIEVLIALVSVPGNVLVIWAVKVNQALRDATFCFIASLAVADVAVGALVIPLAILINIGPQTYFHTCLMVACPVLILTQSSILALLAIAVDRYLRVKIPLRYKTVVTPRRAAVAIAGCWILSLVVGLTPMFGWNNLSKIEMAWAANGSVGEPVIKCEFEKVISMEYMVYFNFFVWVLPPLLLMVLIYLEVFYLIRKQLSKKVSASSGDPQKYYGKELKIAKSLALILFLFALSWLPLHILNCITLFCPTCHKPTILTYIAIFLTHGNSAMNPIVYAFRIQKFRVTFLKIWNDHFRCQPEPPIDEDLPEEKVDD
testDetails: Binding affinity against adenosine A1 receptor using [3H]CPX in guinea pig DDT membrane; 6250+/-1767
observedProperty: pKi
Answers are plain numbers, as −log10 of the molar value.

Form field: reported pKi of O[C@@H]1[C@@H](CSc2ccccc2C(F)(F)F)OC(n2cnc3c(NC4CCOC4)ncnc32)[C@@H]1O (stereo partly specified) 5.20

* * *

targetOrSystem: Adenosine receptor A1 (Cavia porcellus)
Sequence (P47745 whole entry): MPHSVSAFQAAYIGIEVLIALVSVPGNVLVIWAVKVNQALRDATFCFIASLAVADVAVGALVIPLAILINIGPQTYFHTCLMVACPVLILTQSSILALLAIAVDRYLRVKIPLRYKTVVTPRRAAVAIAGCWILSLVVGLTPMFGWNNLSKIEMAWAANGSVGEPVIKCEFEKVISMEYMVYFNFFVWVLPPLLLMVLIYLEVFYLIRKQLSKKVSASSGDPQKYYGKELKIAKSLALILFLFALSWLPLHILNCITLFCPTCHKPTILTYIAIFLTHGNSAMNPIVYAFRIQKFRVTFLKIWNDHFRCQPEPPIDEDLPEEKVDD
testDetails: Binding affinity against adenosine A1 receptor using [3H]CPX in guinea pig DDT membrane; 506+/-111
observedProperty: Ki (nM)
One number for each entry, in nM.

Form field: reported Ki of O[C@@H]1[C@H](O)[C@@H](CSc2ccccc2F)O[C@H]1n1cnc2c(NC3CCOC3)ncnc21 (stereo partly specified) 506

* * *

targetOrSystem: Adenosine receptor A1 (Cavia porcellus, UniProt P47745)
testDetails: Binding affinity against adenosine A1 receptor using [3H]CPX in guinea pig DDT membrane; 1143+/-426
observedProperty: pKi
One number for each entry, as −log10 of the molar value.

Form field: reported pKi of Cc1ccccc1SC[C@H]1OC(n2cnc3c(NC4CCOC4)ncnc32)[C@H](O)[C@@H]1O (stereo partly specified) 5.94

* * *

targetOrSystem: Adenosine receptor A1 (Cavia porcellus, UniProt P47745)
testDetails: Binding affinity against adenosine A1 receptor using [3H]CPX in guinea pig DDT membrane; 354+/-113
observedProperty: pKi
Give bare numbers, as −log10 of the molar value.

Which measured pKi belongs to COc1ccc2sc(SC[C@H]3OC(n4cnc5c(NC6CCCC6)ncnc54)[C@H](O)[C@@H]3O)nc2c1 (stereo partly specified) , tested on Adenosine receptor A1 (Cavia porcellus, UniProt P47745)? 6.45

* * *

targetOrSystem: Adenosine receptor A1 (Cavia porcellus)
testDetails: Binding affinity against adenosine A1 receptor using [3H]CPX in guinea pig DDT membrane; 158+/-21
observedProperty: pKi
Numbers only, as −log10 of the molar value.

Which measured pKi belongs to O[C@@H]1[C@@H](CSc2nccs2)OC(n2cnc3c(NC4CCOC4)ncnc32)[C@@H]1O (stereo partly specified) , tested on Adenosine receptor A1 (Cavia porcellus)? 6.80

* * *

targetOrSystem: UniProt P47745
testDetails: Binding affinity against adenosine A1 receptor using [3H]CPX in guinea pig DDT membrane; 894+/-659
observedProperty: Ki (nM)
Numbers only, in nM.

Form field: reported Ki of O[C@@H]1[C@@H](CSc2ccccn2)OC(n2cnc3c(NC4CCOC4)ncnc32)[C@@H]1O (stereo partly specified) 894

* * *

targetOrSystem: Adenosine receptor A1 (Cavia porcellus)
testDetails: Binding affinity against adenosine A1 receptor using [3H]-CPX in guinea pig DDT membrane; 4191+/-922
observedProperty: Ki (µM)
Give bare numbers, in µM.

Which measured Ki belongs to Cn1ccnc1SC[C@H]1OC(n2cnc3c(NC4CCOC4)ncnc32)[C@H](O)[C@@H]1O (stereo partly specified) , tested on Adenosine receptor A1 (Cavia porcellus)? 4.19

* * *

targetOrSystem: Adenosine receptor A1 (Cavia porcellus, UniProt P47745)
testDetails: Binding affinity against adenosine A1 receptor using [3H]CPX in guinea pig DDT membrane; 166+/-75
observedProperty: Ki (nM)
One number for each entry, in nM.

Form field: reported Ki of O[C@@H]1[C@@H](CSc2nccs2)OC(n2cnc3c(NC4CCCC4)ncnc32)[C@@H]1O (stereo partly specified) 166

* * *

targetOrSystem: UniProtKB P47745
testDetails: Binding affinity against adenosine A1 receptor using [3H]CPX in guinea pig DDT membrane
observedProperty: log10 of Ki (log10 of the value in nM)
Form field - Quantity: Ki; Unit: nM; Scale: log10

compound: O[C@@H]1[C@@H](COc2ccccc2F)OC(n2cnc3c(NC4CCCC4)ncnc32)[C@@H]1O (stereo partly specified)
targetOrSystem: UniProtKB P47745
log10 of Ki: 3.64

compound: O[C@@H]1[C@@H](COCc2ccccc2)OC(n2cnc3c(NC4CCOC4)ncnc32)[C@@H]1O (stereo partly specified)
targetOrSystem: UniProtKB P47745
log10 of Ki: 2.22

Would you mind listing log10 of Ki for each of the following compounds?
1. Cn1ccnc1SC[C@H]1OC(n2cnc3c(NC4CCCC4)ncnc32)[C@H](O)[C@@H]1O (stereo partly specified)
2. Cc1cc(COC[C@H]2OC(n3cnc4c(NC5CCOC5)ncnc43)[C@H](O)[C@@H]2O)no1 (stereo partly specified)
3. O[C@@H]1[C@H](O)[C@@H](CSc2ccc(F)cc2F)O[C@H]1n1cnc2c(NC3CCOC3)ncnc21 (stereo partly specified)

3.13
2.28
2.69
